Assay: Pharmacokinetics and tissue distribution of PsA in mice after IV bolus
Format: in vivo, mouse
Details: male, NIH Swiss, mouse, kidney, iv, 50 mg/kg, mouse kidney, 50 mg/kg IV; read-out: Half-life (converted)
attribute measured: half-life (h)
Answer format: numeric, h implied, no suffix.

// lookup half-life for CC(C)=C[C@H]1C[C@H](C)[C@H]2CC[C@H](C)c3c(O[C@@H]4OC[C@@H](O)[C@H](O)[C@H]4O)c(O)c(C)c1c32 [PsA, pseudopterosin A]
3.98

----------
Test: Pharmacokinetics and tissue distribution of PsA in mice after IV bolus
Assay type: in vivo, mouse
Details: male, NIH Swiss; mouse plasma, 50 mg/kg IV bolus; estimate ± standard error
attribute measured: clearance (mL/min/kg)
Express it in mL/min/kg; write the number only.

Fill in the blank: the reported clearance of `CC(C)=C[C@H]1C[C@H](C)[C@H]2CC[C@H](C)c3c(O[C@@H]4OC[C@@H](O)[C@H](O)[C@H]4O)c(O)c(C)c1c32` is ____.
58

----------
Test: Pharmacokinetics and tissue distribution of PsA in mice after IV bolus
Type: in vivo, mouse
Settings: male, NIH Swiss, mouse, liver / plasma, iv, 50 mg/kg, mouse liver, 50 mg/kg IV; read-out: Relative Exposure (AUCtissue/AUCplasma)
attribute measured: Kp

Please report the recorded Kp for `CC(C)=C[C@H]1C[C@H](C)[C@H]2CC[C@H](C)c3c(O[C@@H]4OC[C@@H](O)[C@H](O)[C@H]4O)c(O)c(C)c1c32` .
1.27

----------
Test: Pharmacokinetics and tissue distribution of PsA in mice after IV bolus
Format: in vivo, mouse
Conditions: male, NIH Swiss, mouse, liver, iv, 50 mg/kg, mouse liver, 50 mg/kg IV; read-out: Half-life (converted)
attribute measured: half-life (h)
Reply numerically in h, unit not repeated.

GET /values?readout=half-life&item= `CC(C)=C[C@H]1C[C@H](C)[C@H]2CC[C@H](C)c3c(O[C@@H]4OC[C@@H](O)[C@H](O)[C@H]4O)c(O)c(C)c1c32`
3.16

----------
Assay: Pharmacokinetics and tissue distribution of PsA in mice after IV bolus
Type: in vivo, mouse
Conditions: male, NIH Swiss; mouse plasma, 50 mg/kg IV bolus; estimate ± standard error
attribute measured: Cmax
Write the quantity with the unit trailing the number.

Looking for the measured Cmax of `CC(C)=C[C@H]1C[C@H](C)[C@H]2CC[C@H](C)c3c(O[C@@H]4OC[C@@H](O)[C@H](O)[C@H]4O)c(O)c(C)c1c32` , can you help?
85.5 µg/mL

----------
Assay: Pharmacokinetics and tissue distribution of PsA in mice after IV bolus
Format: in vivo, mouse
Conditions: male, NIH Swiss, mouse, plasma, iv, 50 mg/kg, mouse plasma, 50 mg/kg IV bolus, two-compartment model; estimate ± standard error; read-out: Distribution Half-life (converted)
attribute measured: half-life (min)
Form entry: value (min) — number only.

Could you share which half-life value was measured for `CC(C)=C[C@H]1C[C@H](C)[C@H]2CC[C@H](C)c3c(O[C@@H]4OC[C@@H](O)[C@H](O)[C@H]4O)c(O)c(C)c1c32` ?
3

----------
Experiment: Pharmacokinetics and tissue distribution of PsA in mice after IV bolus
Type: in vivo, mouse
Settings: male, NIH Swiss, mouse, brain, liver, kidney / plasma, iv, 50 mg/kg, all tissues (brain, liver, kidney) vs plasma, mouse, 50 mg/kg IV; read-out: relative exposure (RE)
attribute measured: Kp

Recorded Kp for `CC(C)=C[C@H]1C[C@H](C)[C@H]2CC[C@H](C)c3c(O[C@@H]4OC[C@@H](O)[C@H](O)[C@H]4O)c(O)c(C)c1c32` , please?
1.27 to 1.36

----------
Test: Pharmacokinetics and tissue distribution of PsA in mice after IV bolus
Assay type: in vivo, mouse
Details: male, NIH Swiss, mouse, brain / plasma, iv, 50 mg/kg, mouse brain, 50 mg/kg IV; read-out: Relative Exposure (AUCtissue/AUCplasma)
Procedure: After spiking with 10 µL of 17β-estradiol (100 µg/mL), 100 µL plasma or […] of tissue homogenate (prepared as above) was mixed with 300 µL of acetonitrile and vortex-mixed for 15 s. The samples were then extracted with 0.6 mL of ethyl acetate. After centrifugation for 10 min at 2000× g, the upper organic layer was removed and evaporated to dryness under reduced pressure in a vacuum centrifuge. […]
attribute measured: Kp
// response body must contain only the number

// returns reported Kp for input `CC(C)=C[C@H]1C[C@H](C)[C@H]2CC[C@H](C)c3c(O[C@@H]4OC[C@@H](O)[C@H](O)[C@H]4O)c(O)c(C)c1c32`
1.36

----------
Assay: Pharmacokinetics and tissue distribution of PsA in mice after IV bolus
Type: in vivo, mouse
Settings: male, NIH Swiss; mouse plasma, 50 mg/kg IV bolus; estimate ± standard error; read-out: Vss
Procedure: After spiking with 10 µL of 17β-estradiol (100 µg/mL), 100 µL plasma or […] of tissue homogenate (prepared as above) was mixed with 300 µL of acetonitrile and vortex-mixed for 15 s. The samples were then extracted with 0.6 mL of ethyl acetate. After centrifugation for 10 min at 2000× g, the upper organic layer was removed and evaporated to dryness under reduced pressure in a vacuum centrifuge. […]
attribute measured: Vd (L/kg)
Write it as a number; the unit L/kg goes unstated.

What value of Vd has been reported for the following molecule? CC(C)=C[C@H]1C[C@H](C)[C@H]2CC[C@H](C)c3c(O[C@@H]4OC[C@@H](O)[C@H](O)[C@H]4O)c(O)c(C)c1c32 [PsA, pseudopterosin A]
10.1

----------
Test: Pharmacokinetics and tissue distribution of PsA in mice after IV bolus
Type: in vivo, mouse
Conditions: male, NIH Swiss, mouse, brain, iv, 50 mg/kg, mouse brain, 50 mg/kg IV; read-out: Half-life (converted)
attribute measured: half-life (h)
Use h as the unit, but write only the number.

Which half-life is listed for `CC(C)=C[C@H]1C[C@H](C)[C@H]2CC[C@H](C)c3c(O[C@@H]4OC[C@@H](O)[C@H](O)[C@H]4O)c(O)c(C)c1c32` ?
2.91

----------
Experiment: Pharmacokinetics and tissue distribution of PsA in mice after IV bolus
Assay type: in vivo, mouse
Conditions: male, NIH Swiss, mouse, plasma, brain, liver, kidney, iv, 50 mg/kg, mouse plasma and tissues (brain, liver, kidney), 50 mg/kg IV; read-out: elimination half-life
Procedure: After spiking with 10 µL of 17β-estradiol (100 µg/mL), 100 µL plasma or […] of tissue homogenate (prepared as above) was mixed with 300 µL of acetonitrile and vortex-mixed for 15 s. The samples were then extracted with 0.6 mL of ethyl acetate. After centrifugation for 10 min at 2000× g, the upper organic layer was removed and evaporated to dryness under reduced pressure in a vacuum centrifuge. […]
attribute measured: half-life

Form field: reported half-life of `CC(C)=C[C@H]1C[C@H](C)[C@H]2CC[C@H](C)c3c(O[C@@H]4OC[C@@H](O)[C@H](O)[C@H]4O)c(O)c(C)c1c32`
3 to 4 h
